Species on record: Rattus norvegicus
Assay: Selectivity ratio of compound effect for antagonism of alpha1B adrenergic receptor in Wistar rat spleen to compound effect for antagonism of alpha1A adrenergic receptor in Wistar rat prostatic rat vas deferens
Give yes (1) when the value for Selectivity ratio is at least 9. Give no (0) when it is less.

COc1cc2nc(N3CCN(C(=O)C4COc5ccccc5O4)[C@H]4CCCC[C@H]43)nc(N)c2cc1OC (single isomer, unassigned; (-))
yes (1)
CCCN(CCC)c1nc(N2CCN(C(=O)c3ccco3)[C@H]3CCCC[C@H]32)nc2cc(OC)c(OC)cc12
yes (1)
COc1cc2nc(N3CCN(C(=O)COc4c(OC)cccc4C(C)C)[C@H]4CCCC[C@H]43)nc(N)c2cc1OC
no (0)
COc1cc2nc(N3CCN(C(=O)OCc4ccccc4)[C@H]4CCCC[C@H]43)nc(N)c2cc1OC
yes (1)

I'd appreciate it if you could say whether COc1cc2nc(N3CCN(C(=O)Cc4ccc5ccccc5c4)[C@H]4CCCC[C@H]43)nc(N)c2cc1OC has Selectivity ratio at least equal to 9.
yes (1)

Could you please find out whether COc1cc2nc(N3CCN(C(C)=O)[C@@H]4CCCC[C@@H]43)nc(N)c2cc1OC has Selectivity ratio that meets 9 or exceeds it?
yes (1)

Could you tell me if the measured Selectivity ratio of COc1cc2nc(N3CCN(C(=O)C(C)(C)C)[C@H]4CCCC[C@H]43)nc(N)c2cc1OC reaches 9 or more?
yes (1)

Decide: Selectivity ratio of COc1cc2nc(N3CCN(C(C)=O)[C@H]4CCCC[C@H]43)nc(N)c2cc1OC >= 9?
yes (1)

For this molecule, is measured Selectivity ratio 9 or higher? CCCN(CCC)c1nc(N2CCN(C(=O)c3ccco3)[C@@H]3CCCC[C@@H]32)nc2cc(OC)c(OC)cc12
no (0)

All values here come from ChEMBL document CHEMBL4118202.
